Measured antimicrobial susceptibility, A. baumannii FSAb-039 accompanies every entry in the list below.
tested on: A. baumannii FSAb-039; experiment: Antimicrobial Susceptibility Test (CLSI), Test Example 2; assay type: cell-based; set-up: unit not given here; conditions: Table 4; strain produces OXA-51

Example entries and their recorded answers appear below.
[
  {
    "structureSmiles": "C[C@@H](O)[C@H]1C(=O)N2C(C(=O)O)=C(CN(C)CCNC(=O)c3cccc(O)c3Cl)[C@H](C)[C@H]12",
    "measured": ">32"
  },
  {
    "structureSmiles": "C[C@@H](O)[C@H]1C(=O)N2C(C(=O)[O-])=C(C[N+](C)(C)CCNC(=O)c3ccc(O)c(O)c3Cl)[C@H](C)[C@H]12",
    "measured": 16
  }
]

Then this compound:
-- ask Please indicate antimicrobial susceptibility, A. baumannii FSAb-039 recorded for C[C@@H](O)[C@H]1C(=O)N2C(C(=O)O)=C(CN(C)CCNC(=O)c3cc(O)c(O)cc3Cl)[C@H](C)[C@H]12
-- reply 8

###

system: A. baumannii FSAb-056; assay: Antimicrobial Susceptibility Test (CLSI), Test Example 2; type: cell-based; parameters: unit not given here; settings: Table 4; strain produces OXA-23, OXA-51
Measured antimicrobial susceptibility, A. baumannii FSAb-056 accompanies every entry in the list below.
# respond with the number and nothing more

Example entries and their recorded answers appear below.
[
  {
    "compound": "C[C@@H](O)[C@H]1C(=O)N2C(C(=O)O)=C(CN(C)CCNC(=O)c3cccc(O)c3Cl)[C@H](C)[C@H]12 [Compound 11]",
    "measured": 32
  },
  {
    "compound": "C[C@@H](O)[C@H]1C(=O)N2C(C(=O)O)=C(CN(C)CCNC(=O)c3ccccc3Cl)[C@H](C)[C@H]12 [Compound 13]",
    "measured": 32
  }
]

-- ask Please tell me the measured antimicrobial susceptibility, A. baumannii FSAb-056 for C[C@@H](O)[C@H]1C(=O)N2C(C(=O)O)=C(CN3C[C@H](NC(=O)c4ccc(O)c(O)c4Cl)[C@@H](O)C3)[C@H](C)[C@H]12 [Compound 30] ; system: A. baumannii FSAb-056.
-- reply 4

-- ask Please tell me the measured antimicrobial susceptibility, A. baumannii FSAb-056 for C[C@@H](O)[C@H]1C(=O)N2C(C(=O)O)=C(CN(C)CCNC(=O)c3cc(O)c(O)cc3Cl)[C@H](C)[C@H]12 [Compound 5] ; system: A. baumannii FSAb-056.
-- reply 8

-- ask Please tell me the measured antimicrobial susceptibility, A. baumannii FSAb-056 for C[C@@H](O)[C@H]1C(=O)N2C(C(=O)O)=C(CN(C)CCNC(=O)c3ccc(OC(=O)C(C)(C)C)c(OC(=O)C(C)(C)C)c3Cl)[C@H](C)[C@H]12 [Compound 16] ; system: A. baumannii FSAb-056.
-- reply 8

-- ask Please tell me the measured antimicrobial susceptibility, A. baumannii FSAb-056 for C[C@@H](O)[C@H]1C(=O)N2C(C(=O)O)=C(CN3CC(C(=O)NCc4ccc(O)c(O)c4Cl)C3)[C@H](C)[C@H]12 [Compound 39] ; system: A. baumannii FSAb-056.
-- reply 8

###

system: A. baumannii KABA 01-33; assay: MIC by CLSI agar/broth dilution, Test Example 1; type: cell-based; parameters: unit not given here; conditions: Table 2; strain produces OXA-2, VIM-2
Note to self: MIC (minimum inhibitory concentration), A. baumannii KABA 01-33 under 2 means fulfilled, ties and anything higher get not fulfilled.

[
  {
    "compound": "C[C@@H](O)[C@H]1C(=O)N2C(C(=O)O)=C(CN(C)CC(=O)NCCNC(=O)c3ccc(O)c(O)c3Cl)[C@H](C)[C@H]12 [Compound 19]",
    "targetOrSystem": "A. baumannii KABA 01-33",
    "assignedCategory": "fulfilled"
  },
  {
    "compound": "C[C@@H](O)[C@H]1C(=O)N2C(C(=O)O)=C(CN(C)CC(=O)NCCNC(=O)c3ccc(O)c(O)c3)[C@H](C)[C@H]12 [Compound 20]",
    "targetOrSystem": "A. baumannii KABA 01-33",
    "assignedCategory": "not fulfilled"
  },
  {
    "compound": "C[C@@H](O)[C@H]1C(=O)N2C(C(=O)O)=C(CN(C)CCNC(=O)c3cc(=O)c(O)cn3O)[C@H](C)[C@H]12 [Compound 25]",
    "targetOrSystem": "A. baumannii KABA 01-33",
    "assignedCategory": "not fulfilled"
  },
  {
    "compound": "C[C@@H](O)[C@H]1C(=O)N2C(C(=O)O)=C(CN(C)CCNC(=O)c3cc(O)c(O)c(Cl)c3)[C@H](C)[C@H]12 [Compound 6]",
    "targetOrSystem": "A. baumannii KABA 01-33",
    "assignedCategory": "fulfilled"
  },
  {
    "compound": "C[C@@H](O)[C@H]1C(=O)N2C(C(=O)O)=C(CN(C)CC(=O)NCc3cc(=O)c(O)co3)[C@H](C)[C@H]12 [Compound 27]",
    "targetOrSystem": "A. baumannii KABA 01-33",
    "assignedCategory": "not fulfilled"
  }
]

Then this compound:
-- ask Just wondering, is MIC (minimum inhibitory concentration), A. baumannii KABA 01-33 of C[C@@H](O)[C@H]1C(=O)N2C(C(=O)O)=C(CN(C)CC(=O)NCCc3ccc(O)c(O)c3)[C@H](C)[C@H]12 [Compound 22] below 2?
-- reply not fulfilled
